Source of measurements: paper PMC10755797

- assayed.system: TYK2 (Homo sapiens)
- method.notes: Kinase-Glo Max kinase assay, purified enzyme
- Assay type: biochemical
- particulars: Enzyme IC50 TYK2, 0.1 mM ATP
reported.metric: IC50 (nM)
Answers are plain numbers, in nM.

Look up IC50 for the entries below, preserving their order.
1. Cc1cnc(Nc2ccc(OCCO)cc2)nc1Nc1cccc(S(=O)(=O)NC(C)(C)C)c1
2. Cc1cnc(Nc2ccc(OCCOc3ccc(/N=N/c4ccc(C(=O)NCCC(=O)O)cc4)cc3C(=O)O)cc2)nc1Nc1cccc(S(=O)(=O)NC(C)(C)C)c1

1: 91.6; 2: 4700

###

- assayed.system: JAK1 (Homo sapiens)
- method.notes: Kinase-Glo Max kinase assay, purified enzyme
- Assay type: biochemical
- particulars: IC50 JAK1 expressed in ng/ml, converted from nM
reported.metric: IC50

Sure, the documented IC50 for Cc1cnc(Nc2ccc(OCCO)cc2)nc1Nc1cccc(S(=O)(=O)NC(C)(C)C)c1 is ~10.6 nM

###

- assayed.system: JAK1 (Homo sapiens, UniProt P23458)
- Sequence (P23458 whole entry): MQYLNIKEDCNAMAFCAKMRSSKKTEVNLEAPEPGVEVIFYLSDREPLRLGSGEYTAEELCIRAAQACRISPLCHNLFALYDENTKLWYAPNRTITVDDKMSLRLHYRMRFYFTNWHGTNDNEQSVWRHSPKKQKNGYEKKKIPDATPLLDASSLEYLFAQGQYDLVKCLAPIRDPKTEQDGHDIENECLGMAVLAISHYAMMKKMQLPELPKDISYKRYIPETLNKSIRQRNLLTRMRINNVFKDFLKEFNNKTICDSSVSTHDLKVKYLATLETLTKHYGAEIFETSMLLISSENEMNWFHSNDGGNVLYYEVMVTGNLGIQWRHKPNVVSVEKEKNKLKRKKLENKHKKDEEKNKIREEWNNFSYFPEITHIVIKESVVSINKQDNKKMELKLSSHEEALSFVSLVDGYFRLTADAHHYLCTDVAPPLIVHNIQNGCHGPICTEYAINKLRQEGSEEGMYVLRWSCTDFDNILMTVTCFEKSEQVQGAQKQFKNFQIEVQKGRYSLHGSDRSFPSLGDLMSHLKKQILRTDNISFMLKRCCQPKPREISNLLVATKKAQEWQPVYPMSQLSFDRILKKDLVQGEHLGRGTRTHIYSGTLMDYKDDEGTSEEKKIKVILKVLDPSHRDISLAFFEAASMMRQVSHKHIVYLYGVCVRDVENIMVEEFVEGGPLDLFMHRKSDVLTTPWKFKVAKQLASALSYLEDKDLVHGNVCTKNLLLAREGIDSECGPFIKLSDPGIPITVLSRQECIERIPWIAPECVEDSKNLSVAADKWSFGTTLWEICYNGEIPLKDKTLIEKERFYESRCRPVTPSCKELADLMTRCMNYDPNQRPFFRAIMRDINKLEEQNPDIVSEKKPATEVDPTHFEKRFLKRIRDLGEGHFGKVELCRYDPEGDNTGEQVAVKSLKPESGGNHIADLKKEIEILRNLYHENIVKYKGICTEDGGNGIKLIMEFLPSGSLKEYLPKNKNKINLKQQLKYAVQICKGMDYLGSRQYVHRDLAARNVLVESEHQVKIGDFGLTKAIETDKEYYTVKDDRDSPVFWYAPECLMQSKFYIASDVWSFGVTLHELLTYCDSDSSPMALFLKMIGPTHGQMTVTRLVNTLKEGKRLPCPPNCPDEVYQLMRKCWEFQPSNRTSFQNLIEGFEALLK
- method.notes: Kinase-Glo Max kinase assay, purified enzyme
- Assay type: biochemical
- particulars: Enzyme IC50 JAK1, 0.1 mM ATP
reported.metric: IC50 (nM)
Answers are plain numbers, in nM.

# chemical.string, assayed.system, reported.metric, unit.tag, endpoint.result
records = [
    ("Cc1cnc(Nc2ccc(OCCOc3ccc(/N=N/c4ccc(C(=O)NCCC(=O)O)cc4)cc3C(=O)O)cc2)nc1Nc1cccc(S(=O)(=O)NC(C)(C)C)c1", "JAK1 (Homo sapiens, UniProt P23458)", "IC50", "nM", 368),
]

Now, please, on to the next molecule.
Sure, the documented IC50 for Cc1cnc(Nc2ccc(OCCO)cc2)nc1Nc1cccc(S(=O)(=O)NC(C)(C)C)c1 is 10.8

###

- assayed.system: TYK2 (Homo sapiens, UniProt P29597)
- Sequence (P29597 whole entry): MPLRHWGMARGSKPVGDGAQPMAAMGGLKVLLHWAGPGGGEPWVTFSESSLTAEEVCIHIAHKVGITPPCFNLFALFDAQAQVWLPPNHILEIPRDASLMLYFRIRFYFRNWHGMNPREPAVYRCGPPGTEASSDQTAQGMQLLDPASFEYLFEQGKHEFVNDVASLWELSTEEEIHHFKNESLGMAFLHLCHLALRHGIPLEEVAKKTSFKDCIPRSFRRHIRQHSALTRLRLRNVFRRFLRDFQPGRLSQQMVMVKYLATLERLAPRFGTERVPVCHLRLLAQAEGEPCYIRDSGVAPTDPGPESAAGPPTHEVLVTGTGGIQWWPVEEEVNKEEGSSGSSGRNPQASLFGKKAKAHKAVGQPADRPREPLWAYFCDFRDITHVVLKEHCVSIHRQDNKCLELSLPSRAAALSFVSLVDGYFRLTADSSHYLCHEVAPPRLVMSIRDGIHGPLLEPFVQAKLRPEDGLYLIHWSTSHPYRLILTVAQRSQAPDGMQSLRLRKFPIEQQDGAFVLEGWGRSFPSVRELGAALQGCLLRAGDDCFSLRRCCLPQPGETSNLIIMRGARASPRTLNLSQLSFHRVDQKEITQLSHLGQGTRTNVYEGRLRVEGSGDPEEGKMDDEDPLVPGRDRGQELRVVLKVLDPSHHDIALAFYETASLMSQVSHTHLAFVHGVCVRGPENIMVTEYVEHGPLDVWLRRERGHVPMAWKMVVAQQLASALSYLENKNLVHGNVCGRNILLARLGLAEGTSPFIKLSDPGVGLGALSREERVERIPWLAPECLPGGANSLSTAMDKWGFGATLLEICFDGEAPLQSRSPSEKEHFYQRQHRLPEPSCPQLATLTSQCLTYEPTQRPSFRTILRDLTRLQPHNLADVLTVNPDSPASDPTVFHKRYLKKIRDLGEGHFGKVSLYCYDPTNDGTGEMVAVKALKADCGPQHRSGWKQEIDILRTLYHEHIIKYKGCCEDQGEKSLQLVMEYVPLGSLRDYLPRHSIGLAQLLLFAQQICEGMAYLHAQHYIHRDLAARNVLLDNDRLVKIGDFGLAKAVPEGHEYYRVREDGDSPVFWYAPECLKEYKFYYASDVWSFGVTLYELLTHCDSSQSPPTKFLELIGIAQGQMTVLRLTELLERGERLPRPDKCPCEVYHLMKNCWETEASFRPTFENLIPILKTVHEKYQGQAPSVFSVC
- method.notes: Kinase-Glo Max kinase assay, purified enzyme
- Type: biochemical
- particulars: IC50 TYK2 expressed in ng/ml, converted from nM
reported.metric: IC50

Sure, the documented IC50 for Cc1cnc(Nc2ccc(OCCO)cc2)nc1Nc1cccc(S(=O)(=O)NC(C)(C)C)c1 is ~89.3 nM
